Item-by-item account of TGI
system: BT-549 breast; experiment: NCI tumour cell line growth inhibition, 48 h
readout kind: TGI

INSERT INTO assay_data (compound, readout_kind, measured_result) VALUES
  ('Cc1[c-]onc1C.Cc1[c-]onc1C.[Ag].[Ag].[NH-]S(=O)(=O)c1ccc(N=Nc2cc(N=Nc3ccc(S([NH-])(=O)=O)cc3)c3c(NC(=O)C(Cl)Cl)cccc3c2OC(=O)C(Cl)Cl)cc1', 'TGI', '14.8 µM'),
  ('COP(=O)(O)/C=C/C(NC(=O)C(Cl)(Cl)Cl)c1ccccc1 (configuration not stated)', 'TGI', '> 100 µM'),
  ('CC(C)(C)NC(=O)[C@H]1CC[C@H]2[C@@H]3CC=C4NC(=O)CC[C@]4(C)[C@H]3CC[C@]12C', 'TGI', '> 100 µM'),
  ('CCN(CC)c1ccc(C(=C2C=CC(=[N+](CC)Cc3cccc(S(=O)(=O)O)c3)C=C2)c2ccc(N(CC)Cc3cccc(S(=O)(=O)O)c3)cc2)cc1', 'TGI', '> 91.7 µM'),
  ('COc1cccc(/C=C/C(=O)c2cccc(Nc3nc(Nc4ccccc4)nc(Nc4ccccc4)n3)c2)c1', 'TGI', '> 72.1 µM'),
  ('CCNC(=O)Nc1ccccn1', 'TGI', '> 100 µM'),
  ('CN(C)c1nc(=NCc2ccncc2)ss1', 'TGI', '44 µM');

* * *

test system: HL-60(TB) leukemia; assay: NCI tumour cell line growth inhibition, 48 h
Binary call on TGI: label 1 from 20 µM upward, label 0 beneath that.

INSERT INTO assay_data (compound, assigned_label) VALUES
  ('CCC1=CCC23C(=O)C=CC(=O)C2(C1)C(=O)c1cccc(OC)c1C3=O (configuration not stated)', 'label 0'),
  ('O=C1CCSSCCC(=O)NCCN1', 'label 1'),
  ('CCN(Cc1ccc(F)c(F)c1)c1ccc(CO)c(Cl)c1', 'label 1'),
  ('C[n+]1c(-c2ccccc2)cc2/c(=C\c3ccc([N+](=O)[O-])cc3)c3ccccc3n21', 'label 0'),
  ('CCN(CC)c1ccc(C(=C2C=CC(=[N+](CC)Cc3cccc(S(=O)(=O)O)c3)C=C2)c2ccc(N(CC)Cc3cccc(S(=O)(=O)O)c3)cc2)cc1', 'label 0'),
  ('Cc1occc1C(=S)Nc1ccc(Cl)c(COC(C)(C)C)c1', 'label 1'),
  ('COc1ccc2nc3cc([N+](=O)[O-])ccc3c(NCCCCCN(C)C)c2c1', 'label 0'),
  ('CN(C)S(=O)(=O)c1ccc(NC(=O)COC(=O)c2ccc(S(=O)(=O)N3CCCCC3)cc2)cc1', 'label 1'),
  ('O=C(c1ccccc1)C1N=NCC1c1ccc([N+](=O)[O-])cc1 (configuration not stated)', 'label 1'),
  ('Nc1nn2c(C(Br)Br)cc(C(Br)Br)nc2c1[N+](=O)[O-]', 'label 0'),
  ('Cc1ccc(C(=O)O/N=C2/CCC/C2=C\c2ccccc2)cc1', 'label 1'),
  ('O=C(O)[C@@H]1C[C@@H](O)CN1C(=O)OCc1ccccc1', 'label 1'),
  ('CN(C)NC(=S)Nc1ccccc1Br', 'label 1'),
  ('Cc1cccc(NC(=O)CC(=O)N2N=C(N(CCC#N)c3ccc(Cl)cc3)CC2c2ccccc2)c1 (configuration not stated)', 'label 1'),
  ('CC1SC(c2c(Cl)cccc2Cl)N(NC(=O)c2[nH]c3ccc(F)cc3c2-c2ccccc2)C1=O (configuration not stated)', 'label 1'),
  ('COc1c(CCC[P+](c2ccccc2)(c2ccccc2)c2ccccc2)cc2c(c1OC)OCO2', 'label 0'),
  ('C=CCC1([C@H](C)[C@@H](OC(C)=O)c2cc(OC)c(OC)c(OC)c2)C[C@@H](OC)CCC1=O (some centres not stated)', 'label 1'),
  ('Cc1[c-]onc1C.Cc1[c-]onc1C.[Ag].[Ag].[NH-]S(=O)(=O)c1ccc(N=Nc2cc(N=Nc3ccc(S([NH-])(=O)=O)cc3)c3c(NC(=O)C(Cl)Cl)cccc3c2OC(=O)C(Cl)Cl)cc1', 'label 1'),
  ('CC1(C)O[C@@H]2COC(=O)[C@@H]2O1', 'label 1'),
  ('C=C1C(=O)O[C@H]2[C@H]1CC/C(COC(=O)NCc1ccccc1OC)=C\CC[C@@]1(C)O[C@@H]21', 'label 0'),
  ('CC1=NOC(=O)/C1=C/c1ccccc1O', 'label 1'),
  ('CCC(=O)OC[n+]1ccc2c(C)c3[nH]c4ccc(OC)cc4c3c(C)c2c1', 'label 0');

* * *

Measured TGI by item
tested on: SF-539 CNS; test: NCI tumour cell line growth inhibition, 48 h
readout kind: TGI

INSERT INTO results (molecule, measured_result) VALUES
  ('NC(=O)C(=O)N/N=C1/c2ccccc2CC1C1(O)C(=O)Nc2c(Cl)cc(Cl)cc21 (stereo unspecified)', '> 100 µM'),
  ('Cc1[c-]onc1C.Cc1[c-]onc1C.[Ag].[Ag].[NH-]S(=O)(=O)c1ccc(N=Nc2cc(N=Nc3ccc(S([NH-])(=O)=O)cc3)c3c(NC(=O)C(Cl)Cl)cccc3c2OC(=O)C(Cl)Cl)cc1', '> 50 µM'),
  ('CC1(C)SC2C(NC(=O)C(N)c3ccccc3)C(=O)N2C1C(=O)O (stereo unspecified)', '> 100 µM'),
  ('N#Cc1c(-c2ccccc2)/c(=C\Nc2ccc(Cl)cc2)c(=O)n2c1nc1ccccc12', '> 100 µM'),
  ('c1cc(-c2cn3ccsc3n2)ccn1', '> 100 µM'),
  ('COc1ccc(-c2cc(=O)c3cc4c(cc3[nH]2)OCO4)c(OC)c1OC', '> 100 µM'),
  ('O=C1OC(=O)C(c2c[nH]c3ccccc23)=C1c1c[nH]c2ccccc12', '> 25 µM'),
  ('CC1=NOC(=O)/C1=C/c1ccccc1O', '> 100 µM'),
  ('CN(C)NC(=S)Nc1ccccc1Br', '> 100 µM'),
  ('CC(C)(C)N=c1n(C(C)(C)C)oc(=O)n1C(C)(C)C', '> 100 µM'),
  ('O=C1c2ccccc2CN1c1ccc(O)cc1', '> 100 µM');

* * *

test system: T-47D breast; experiment: NCI tumour cell line growth inhibition, 48 h
readout kind: TGI

INSERT INTO results (molecule, measured_result) VALUES
  ('O=C(O)C1CC(c2ccc(F)cc2)=Nc2ccc(F)cc2S1 (centres undefined)', '> 100 µM'),
  ('CC(CC(C#N)(c1ccccc1)c1ccccc1)N1CCCCC1 (centres undefined)', '> 100 µM'),
  ('COc1cccc(-c2cc(=O)c3c(C)cc(C)nc3[nH]2)c1', '> 100 µM'),
  ('COc1ccc(/C(=N/O)c2ccccc2-c2nc3ccccc3c(=O)n2-c2ccc(S(=O)(=O)Nc3ncccn3)cc2)cc1C', '25.2 µM');

* * *

Property: TGI; scope: individual compounds
test system: K-562 leukemia; assay: NCI tumour cell line growth inhibition, 48 h
readout kind: TGI

INSERT INTO assay_data (compound, measured_result) VALUES
  ('CC(C)(C)NC(=O)[C@H]1CC[C@H]2[C@@H]3CC=C4NC(=O)CC[C@]4(C)[C@H]3CC[C@]12C', '> 100 µM'),
  ('CNC(=O)c1cncc(/C=C/c2ccccc2C)c1', '> 25 µM'),
  ('Cc1cn2c(/C=C3/C(=O)Nc4cccc(Cl)c43)c(Cl)nc2s1', '> 100 µM'),
  ('COc1ccc(N2C(C)=C(C#N)C34C(=O)N(c5ccccc5)C(=O)C3=C(O)C=CC24O)cc1 (stereo not drawn)', '> 100 µM'),
  ('CCN(CC)S(=O)(=O)c1ccc(OC)c(Nc2ncc(-c3ccccc3)o2)c1', '> 25 µM'),
  ('O=C1c2ccccc2CN1c1ccc(O)cc1', '> 100 µM'),
  ('C[C@H](Nc1ncnc2nc[nH]c12)c1cc2cccc(Cl)c2c(=O)n1-c1ccccc1', '> 100 µM'),
  ('CN(CCCN)CCCNc1nc2ccccc2c2[nH]c3ccccc3c12', '0.346 µM'),
  ('NC(=S)N/N=C(/CC(=O)c1ccccc1)C(=O)Nc1ccc(Cl)c(Cl)c1', '> 100 µM'),
  ('CC(=O)OC(C)c1cc2c(s1)C(=O)c1sccc1C2=O (stereo not drawn)', '> 100 µM'),
  ('CC1=NCCc2c1[nH]c1cc(O)ccc21', '> 100 µM'),
  ('Cc1ccc(C(=O)O/N=C2/CCC/C2=C\c2ccccc2)cc1', '> 100 µM'),
  ('O=C(c1ccc(F)cc1)c1cccc(C(=O)c2ccc(F)cc2)n1', '> 100 µM');

* * *

test system: HOP-18 NSCLC; experiment: NCI tumour cell line growth inhibition, 48 h
Quick list: TGI per entry.
readout kind: TGI

INSERT INTO results (smiles_str, measured_result) VALUES
  ('CC(C)C(=O)Nc1nc2nc[nH]c2c(=O)[nH]1', '> 100 µM'),
  ('C=C1C(=O)O[C@H]2[C@H]1[C@H](OC(=O)/C(C)=C\C)CC(=C)[C@@H]1[C@H](O)[C@H]3O[C@@]3(C)[C@@]12O', '> 100 µM'),
  ('O=C(c1ccc(F)cc1)c1cccc(C(=O)c2ccc(F)cc2)n1', '> 100 µM');
